Measured pHER3 inhibition, EC50 (nM) accompanies every entry in the list below.
biological target: human HER3 receptor on cells (human, UniProt P21860 20-1342); assay: cell-based or functional assay
Sequence (P21860 20-1342): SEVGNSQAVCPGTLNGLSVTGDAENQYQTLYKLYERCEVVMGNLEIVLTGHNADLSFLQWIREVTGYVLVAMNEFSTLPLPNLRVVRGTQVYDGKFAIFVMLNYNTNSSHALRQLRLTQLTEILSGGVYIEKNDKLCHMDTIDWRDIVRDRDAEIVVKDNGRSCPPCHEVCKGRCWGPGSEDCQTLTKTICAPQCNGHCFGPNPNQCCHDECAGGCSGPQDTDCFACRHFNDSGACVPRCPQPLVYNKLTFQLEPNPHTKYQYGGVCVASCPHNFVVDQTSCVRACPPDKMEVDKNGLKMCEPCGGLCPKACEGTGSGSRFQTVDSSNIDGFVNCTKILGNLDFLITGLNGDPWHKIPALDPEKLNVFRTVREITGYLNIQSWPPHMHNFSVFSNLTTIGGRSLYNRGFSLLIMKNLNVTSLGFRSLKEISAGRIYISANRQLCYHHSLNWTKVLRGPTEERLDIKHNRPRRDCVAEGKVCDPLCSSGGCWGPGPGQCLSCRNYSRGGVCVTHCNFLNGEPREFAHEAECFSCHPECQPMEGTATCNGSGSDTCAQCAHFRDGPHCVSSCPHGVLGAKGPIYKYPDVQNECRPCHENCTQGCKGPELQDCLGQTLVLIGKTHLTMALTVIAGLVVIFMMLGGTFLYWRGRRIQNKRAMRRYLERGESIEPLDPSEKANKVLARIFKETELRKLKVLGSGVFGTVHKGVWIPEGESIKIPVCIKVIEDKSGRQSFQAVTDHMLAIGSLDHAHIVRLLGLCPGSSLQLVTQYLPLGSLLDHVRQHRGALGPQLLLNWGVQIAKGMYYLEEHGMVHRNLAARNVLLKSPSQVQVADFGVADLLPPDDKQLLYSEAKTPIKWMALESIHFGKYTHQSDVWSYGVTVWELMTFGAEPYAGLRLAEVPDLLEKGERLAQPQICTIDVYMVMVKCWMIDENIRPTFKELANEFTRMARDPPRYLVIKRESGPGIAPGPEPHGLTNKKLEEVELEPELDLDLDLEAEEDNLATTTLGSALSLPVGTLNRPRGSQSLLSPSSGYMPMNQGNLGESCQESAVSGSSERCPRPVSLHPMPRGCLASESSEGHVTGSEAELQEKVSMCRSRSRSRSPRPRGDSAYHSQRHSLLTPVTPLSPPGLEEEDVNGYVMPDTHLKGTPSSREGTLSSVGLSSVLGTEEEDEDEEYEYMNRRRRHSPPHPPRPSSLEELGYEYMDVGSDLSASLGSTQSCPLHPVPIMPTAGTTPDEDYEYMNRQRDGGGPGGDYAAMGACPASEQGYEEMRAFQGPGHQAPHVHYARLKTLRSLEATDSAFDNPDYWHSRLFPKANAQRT
Your answer should be a plain number; it is taken to be in nM.

Example cases with answers are listed next.
binder="Rab46 (antibody, V domains shown, also called Rab46 monoclonal antibody) VH: EEQLVESGGGLVQPEGSLTLTCTASGFSFSASYYIYWVRQAPGKGLEGIAYITGDDDKRTYYANWAKGRFTISKTSTTVTLQMTSLTAADTATYFCTRNLPDELWGPGTLVTVSS VL: QAVVTQTPSSVSAAVGGTVTISCQSSESVYSYKNLAWYQQKPGQPPRLLIWQASRLSSGVSSRFSGSGSGTQFTLTISGVQCDDAATYYCQGTYYSSAWDFVFGGGTEVMVE" quantity_unit=nM reported=3.5
binder="Rab189 (antibody, V domains shown, also called Rab189 monoclonal antibody) VH: QESLEESGGDLVKPEGTLTLTCKASGIGFGYYYYICWVRQAPGKGLEWIACIYTGISDSTYYATWAKGRFAISKTSSTTVTLQMTSLTAADTATYFCARSDPYYTTTYTNTYPTYWNLWGPGTLVTVSS VL: CAFELTQTPSSVEAAVGGTVTIKCQASQSINNYLAWYQQKTGQPPKLLIYRASTLESGVPSRFKGSGSGTQFTLTISDLECADAATYYCQSYYYSSSNNYYNAFGGGTEVVVK" quantity_unit=nM reported=1.7
binder="Rab774 (antibody, V domains shown, also called Rab774 monoclonal antibody) VH: QSVEESGGRLVTPGTPLTLTCTVSGIDLSTYAMTWVRRAPGKGLEWLGIINRSSKTYLTDWARGRFTISKTSTTVDLKISSPTTEDTATYFCGRVMSPYSVAGGDLWGPGTLVTVSS VL: QPVLTQSPSASAALGASAKLTCILSSDLSDYTIDWYKHQQGEAPRYLMQLRSDGSYTKGTGVPDRFSGSSSGADRYLVISSVQADDEADYYCGLPYSVEYVFGGGTQLTVT" quantity_unit=nM reported=1.8

What value of pHER3 inhibition, EC50 (nM) has been reported for the following binder? Rab1210 (antibody, V domains shown, also called Rab1210 monoclonal antibody) VH: QEQLEESGGGLVQPEGSLTLTCTASGFSFSSSYWICWVRQAPGKGLELIGYIWSGNGATYYASWAKGRFTISKTSSTTVTLQMTSVTATDTATYFCARNYDASGYGIFHLWGPGTLVTVSS VL: AVVMTQTPASVSAAVGGTVTINCQASQSIVSSYLSWYQQKTGQPPKLLIYSASKLASGVPPRFSGSGSGTQFTLTISGVQCDDAATYYCLYGVDSSNIDNAFGGGTEVVVK
0.7

Values from patent US20180066066A1
